Numbers sourced from ChEMBL document CHEMBL1201862.

molecular target: Leucine aminopeptidase (Plasmodium falciparum 3D7); experiment: P. falciparum M17LAP inhibitors, primary screen, biochemical, fluorogenic H-Leu-NHMec substrate, 1536-well (AID 1619); assay type: functional
Sequence (Q8IL11 whole entry): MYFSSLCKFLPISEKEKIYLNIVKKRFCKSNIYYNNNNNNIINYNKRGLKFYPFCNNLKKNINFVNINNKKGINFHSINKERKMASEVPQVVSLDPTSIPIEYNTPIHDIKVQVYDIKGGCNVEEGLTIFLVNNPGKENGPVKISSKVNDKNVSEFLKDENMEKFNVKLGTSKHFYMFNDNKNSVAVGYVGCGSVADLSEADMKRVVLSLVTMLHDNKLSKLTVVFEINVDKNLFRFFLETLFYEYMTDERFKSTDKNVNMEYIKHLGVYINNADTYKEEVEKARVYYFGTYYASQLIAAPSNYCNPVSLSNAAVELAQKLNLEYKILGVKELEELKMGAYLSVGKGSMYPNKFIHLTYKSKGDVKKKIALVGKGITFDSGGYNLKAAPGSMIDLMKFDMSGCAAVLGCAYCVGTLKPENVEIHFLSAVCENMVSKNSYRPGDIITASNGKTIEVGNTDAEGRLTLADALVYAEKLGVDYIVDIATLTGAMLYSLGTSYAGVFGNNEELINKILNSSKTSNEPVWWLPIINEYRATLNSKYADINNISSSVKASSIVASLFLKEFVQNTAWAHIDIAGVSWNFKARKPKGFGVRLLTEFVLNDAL
The source made the active and inactive calls. No rule for the calls is given here.
property label: IC50

[[record]]
compound = "CCSc1nnc(NC(=O)C2CC=CCC2C(=O)O)s1 (stereo unspecified)"
property_label = "IC50"
measured_result = "19.9 µM (active)"

[[record]]
compound = "O=c1[nH][nH]c(=O)c2cc(N3CCCC3)ccc12"
property_label = "IC50"
measured_result = "70.7 µM (active)"

[[record]]
compound = "O=C(O)c1cccc(NC(=S)N/N=C/c2ccccc2OCc2cccc(Br)c2)c1"
property_label = "IC50"
measured_result = "15.8 µM (active)"

[[record]]
compound = "COc1ccc(NC(=O)CSc2nc(O)c(Cc3ccccc3)c(=O)[nH]2)cc1"
property_label = "IC50"
measured_result = "10.2 µM (active)"

[[record]]
compound = "COc1cc(NC(=O)CSc2nc3ccccc3cc2C)c(C(=O)O)cc1OC"
property_label = "IC50"
measured_result = "1.57 µM (active)"


# evaluate next
Q) IC50 for COc1ccc(/C=C2\SC(NS(=O)(=O)c3cccs3)=NC2=O)cc1 ?
A) 31 µM (active)
